# Measured target: T1, MPP6, Q9NZW5
# T1 sequence (Q9NZW5 125-219, limits assumed, looked up): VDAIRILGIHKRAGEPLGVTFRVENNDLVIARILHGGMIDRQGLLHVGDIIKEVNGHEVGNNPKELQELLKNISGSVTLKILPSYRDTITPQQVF
# Assay name: holdup assay
# Design: key: below the threshold = too weak to quantify, mostly under pKd 3.1 to 4
# Measurement parameters: plain residues with an end cap or a label only (N-terminal biotin on a linker: ado-ado)
Attribute measured: pKd

Before answering, review these 7 worked examples.
| Binder | Observed result |
| --- | --- |
| LRSPRTPSEV [OR10G3, Q8NGC4] | below the threshold |
| GQEEQVTTRL [TRPC5, Q9UL62] | below the threshold |
| VRNLPESEEL [MYOZ3, Q8TDC0] | 3.64 |
| DDEDRLVIEI [ZNF831, Q5JPB2] | below the threshold |
| SKENVQETQI [LRRC4B, Q9NT99] | below the threshold |
| RRISSLESEV [GRIN2C, Q14957] | below the threshold |
| EKKTLIGIKL [GOT1L1, Q8NHS2] | below the threshold |

For SKSNFGSEPL [KIF17, Q9P2E2] , what is its reported pKd?
3.66
